System: IEC6 cells
Experiment: Cell viability assay IEC6
Type: cell-based
Details: Rattus norvegicus, IEC-6, 144 h; 6 days, CellTiterGlo
pIC50: −log10 of the molar value.
measure.name: pIC50

>>> recorded_value("CCc1cc2ncc(CN3CCN(C(=O)CCCCCOc4cc(F)c([C@@H]5c6[nH]c7ccccc7c6C[C@@H](C)N5CC(C)(C)F)c(F)c4)CC3)cc2[nH]c1=O [Compound 61]")
"< 4.52"
>>> recorded_value("CCc1cc2ncc(CN3CCN(C(=O)COc4cc(F)c([C@@H]5c6[nH]c7ccccc7c6C[C@@H](C)N5CC(C)(C)F)c(F)c4)CC3)cc2[nH]c1=O [Compound 73]")
"< 4.52"
>>> recorded_value("CCc1cc2ncc(CN3CCN(CC4CCN(c5ccc(C(=O)N[C@H]6C(C)(C)[C@H](Oc7ccc(C#N)c(Cl)c7)C6(C)C)nn5)CC4)CC3)cc2[nH]c1=O [Compound 13]")
"5.30 to 6.30"
>>> recorded_value("CCc1cc2ncc(CN3CCN(Cc4ccc(-c5nnc([C@H](Nc6ccc(C#N)c(Cl)c6)[C@H](C)O)o5)cc4)CC3)cc2[nH]c1=O [Compound 68]")
"< 4.52"
>>> recorded_value("CCc1cc2ncc(CN3CCN(C(=O)[C@H]4CC[C@H](COc5cc(F)c([C@@H]6c7[nH]c8ccccc8c7C[C@@H](C)N6CC(C)(C)F)c(F)c5)CC4)CC3)cc2[nH]c1=O [Compound 70]")
"< 4.52"
>>> recorded_value("CCc1cc2ncc(CN3CCN(CCCCCCOc4cc(F)c([C@@H]5c6[nH]c7ccccc7c6C[C@@H](C)N5CC(C)(C)F)c(F)c4)CC3)cc2[nH]c1=O [Compound 72]")
"4.52 to 5.30"
>>> recorded_value("CCc1cc2ncc(CN3CCN(CC4CCN(c5ccc(C(=O)N[C@H]6CC[C@H](Oc7ccc(C#N)c(Cl)c7C)CC6)nn5)CC4)CC3)cc2[nH]c1=O [Compound 66]")
"5.30 to 6.30"
>>> recorded_value("CCc1cc2ncc(CN3CCN(c4ccc(C(=O)NCC5CCN(c6ccc(C(=O)N[C@H]7CC[C@H](Oc8ccc(C#N)c(Cl)c8)CC7)nn6)CC5)nc4)CC3)cc2[nH]c1=O [Compound 1]")
"< 4.52"
>>> recorded_value("CCc1cc2ncc(CN3CCN(c4ccc(C(=O)N5CCN(CC6CCN(c7ccc(C(=O)N[C@H]8CC[C@H](Oc9ccc(C#N)c(Cl)c9)CC8)nn7)CC6)CC5)nc4)CC3)cc2[nH]c1=O [Compound 59]")
"< 4.52"
>>> recorded_value("CCc1cc2ncc(CN3CCN(CC4CCN(c5ccc(C(=O)N[C@H]6CC[C@H](Oc7ccc(C#N)c(Cl)c7)CC6)nn5)CC4)CC3)cc2[nH]c1=O [Compound 4]")
"< 4.52"
>>> recorded_value("CCc1cc2ncc(CN3CCN(c4ccc(C(=O)N5CCN(C(=O)C6CCN(c7ccc(C(=O)N[C@H]8CC[C@H](Oc9ccc(C#N)c(Cl)c9)CC8)nn7)CC6)CC5)nc4)CC3)cc2[nH]c1=O [Compound 60]")
"< 4.52"
>>> recorded_value("CCc1cc2ncc(CN3CCN(C[C@H]4CC[C@H](COc5cc(F)c([C@@H]6c7[nH]c8ccccc8c7C[C@@H](C)N6CC(C)(C)F)c(F)c5)CC4)CC3)cc2[nH]c1=O [Compound 75]")
"4.52 to 5.30"
>>> recorded_value("CCc1cc2ncc(CN3CCN(c4ccc(-c5nnc([C@H](Nc6ccc(C#N)c(Cl)c6)[C@H](C)O)o5)cc4)CC3)cc2[nH]c1=O [Compound 63]")
"< 4.52"
